- tested_system: T1, ZFP SBS#1141 (synthetic)
- T1 chain: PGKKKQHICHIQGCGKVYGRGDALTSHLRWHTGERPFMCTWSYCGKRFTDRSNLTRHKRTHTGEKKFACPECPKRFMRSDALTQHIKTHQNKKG
- test_protocol: EMSA
- reported_conditions: tags: MBP fusion

- binder: "ATGGACTTG (dsDNA) DNA 1: ATGGACTTG DNA 2: CAAGTCCAT"
  units_label: "nM"
  Kd: 1.7
